As shown below, each of these compounds has a reported Percent Effect value.
Molecular target: Proteasome subunit beta (Trypanosoma cruzi)
Sequence (whole entry): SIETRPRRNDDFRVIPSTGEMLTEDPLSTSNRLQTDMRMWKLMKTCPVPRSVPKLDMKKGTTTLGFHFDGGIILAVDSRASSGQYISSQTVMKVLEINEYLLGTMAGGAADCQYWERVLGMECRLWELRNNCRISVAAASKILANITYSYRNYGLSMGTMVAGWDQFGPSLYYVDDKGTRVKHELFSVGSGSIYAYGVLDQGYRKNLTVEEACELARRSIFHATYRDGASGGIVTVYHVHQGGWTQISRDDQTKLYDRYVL
Experiment: Trypanosoma cruzi proteasome chymotrypsin-like activity (TcProtChymo) assay.
Assay type: functional
Design: scale not given: in the data most compounds retested in dose-response had high values
Conditions: 9.37 µM
Enter your answer as a number in %; do not include the unit.

Some compounds with recorded Percent Effect:
>>> endpoint_result("COc1ccc(C2CCCN2C(=O)NCCNc2ncccn2)cc1 (stereo not drawn)")
19.3
>>> endpoint_result("Cc1ccccc1C1CCCN1C(=O)CN1CC2(CCNCC2)OC1=O (stereo not drawn)")
13.1
>>> endpoint_result("CCOc1cccc(C(=O)NCCC(=O)Nc2ccncc2)c1")
13.7
>>> endpoint_result("Fc1cccc(N2CCCC3(CN(Cc4ccncc4)CCO3)C2)c1 (stereo not drawn)")
8.02
>>> endpoint_result("O=C1NCCCCC1Sc1nnc(C2CC2)n1C1CC1 (stereo not drawn)")
18.5

Now examine the next entry.
Query: What reported Percent Effect corresponds to N#Cc1ccccc1CN1CCCCC1Cn1cncn1 (stereo not drawn) on Proteasome subunit beta (Trypanosoma cruzi)?
Reply: -0.54
